Where do the numbers come from? From PubChem BioAssay AID504340.

# TEST_SUMMARY: yeast TOR pathway CIT2-GFP reporter retest – flow cytometry, third cherry pick, single plex, confirmation (AID 504340);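 note: median GFP fluorescence over all cells with no mother versus daughter split; sample signal as a ratio to the plate DMSO mean so 100% equals DMSO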
# EXPERIMENTAL_CONDITIONS: S. cerevisiae CIT2-GFP strain, 3 h, at 10 µM, stronger effect = higher value
Active and inactive are the calls of the source.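 Rule for the calls: active = GFP response above 150% of the DMSO control; inconclusive = Under 70 cell events counted for a yeast strain; inactive = the rest.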
MEASURED_METRIC: GFP response vs DMSO

### Prompt I am curious: what GFP response vs DMSO value has been reported for CCCCC(=O)NCCc1cc2c(OC)ccc(OC)c2[nH]c1=O ?
### Response 96.1% (inactive)

### Prompt How about this compound: Cc1nc2c(O)cccc2cc1CO
### Response 101% (inactive)

### Prompt Now this one: CNc1cccc2c1C(=O)c1ccccc1C2=O
### Response 104% (inactive)

### Prompt Cool, now COCCCNc1nc(N)c([N+](=O)[O-])c(Nc2cc(OC)ccc2OC)n1
### Response 106% (inactive)

### Prompt Next record, please: Oc1c(Cl)cc(Cl)c2cccnc12
### Response 142% (inactive)

### Prompt And what about the compound COc1ccccc1Nc1nc(NCC(C)C)nc(N)c1[N+](=O)[O-] ?
### Response 114% (inactive)

----------
# TEST_SUMMARY: yeast TOR pathway CIT2-GFP reporter retest – flow cytometry, third cherry pick, single plex, confirmation (AID 504340);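 note: median GFP fluorescence over all cells with no mother versus daughter split; sample signal as a ratio to the plate DMSO mean so 100% equals DMSO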
# EXPERIMENTAL_CONDITIONS: S. cerevisiae CIT2-GFP strain, 3 h, at 10 µM
Activity calls are given as the source filed them.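 Rule for the calls: active = GFP response above 150% of the DMSO control; inconclusive = Under 70 cell events counted for a yeast strain; inactive = the rest.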
Allowed answers: yes = active, no = inactive

### Prompt Record lookup: outcome of this test for CS(=O)(=O)c1nc(-c2ccc(F)cc2)cc(C(F)(F)F)n1 ?
### Response no

### Prompt Now consider COC(=O)c1cc(=O)c2cccc(OC)c2[nH]1 and answer again.
### Response no

### Prompt Also Cc1ccc(NN2C(=O)C=C(c3ccccc3)C2=O)cc1 ?
### Response yes

### Prompt Here is the next molecule: CNc1nc(N)c([N+](=O)[O-])c(Nc2ccccc2OC)n1
### Response yes

### Prompt Ok, now CC(=O)NCCOc1cccc2cccnc12
### Response no

### Prompt Would you mind doing O=C(/C=C/Nc1cccc(O)c1)c1ccccc1 as well?
### Response no

### Prompt Request: COc1ccc(NC(=O)ON=C2c3ccccc3-c3ccccc32)cc1
### Response no

### Prompt Same lookup for Cc1ccc(Nc2cc(=O)[nH]c(=O)[nH]2)cc1Cl , please.
### Response no

### Prompt Repeat with Cc1ccc2nc(-c3ccc(NC(=O)c4cccnc4)cc3)oc2c1
### Response no

### Prompt Also need NC(=O)c1ccnc2c(O)cccc12 , thanks.
### Response no

### Prompt Okay, and Cc1ccc2c(C)ccc(O)c2n1 ?
### Response no

### Prompt // same read-out, input: O=C(O)c1ccc2cccnc2c1O
### Response no

### Prompt Request: COc1cccc(NC(=O)CC(C)=O)c1
### Response no

----------
# TEST_SUMMARY: yeast TOR pathway CIT2-GFP reporter retest – flow cytometry, third cherry pick, single plex, confirmation (AID 504340);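 note: median GFP fluorescence over all cells with no mother versus daughter split; sample signal as a ratio to the plate DMSO mean so 100% equals DMSO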
# EXPERIMENTAL_CONDITIONS: S. cerevisiae CIT2-GFP strain, 3 h, at 10 µM, stronger effect = higher value
MEASURED_METRIC: GFP response vs DMSO (%)
Just the number in %, nothing appended.

### Prompt So what does the record say about GFP response vs DMSO for C/C(=N\NC(=O)c1cccc2ccccc12)c1cccnc1 ?
### Response 91.2

### Prompt // repeat for CC(=O)Nc1ccc(-c2nc3cc(Cl)ccc3o2)cc1 and report
### Response 91.2

### Prompt Same again, this time with O=C(N/N=C/c1ccccc1O)c1cccc2ccccc12
### Response 92.8

### Prompt Also need O=C(O)c1ccc2cccc(O)c2n1 , thanks.
### Response 109

### Prompt Now the compound CC(=O)C(Cl)C(=O)Nc1ccccc1 (stereo unspecified)
### Response 121

### Prompt Please answer likewise for COc1ccccc1Nc1nc(NCCCN(C)C)nc(N)c1[N+](=O)[O-]
### Response 107

### Prompt Continue with Cn1c(NCCO)nc2c(c1=O)C1(CCCCC1)Cc1ccccc1-2
### Response 116

### Prompt Now try COc1ccc(OC)c2c(C)cc(C)nc12 .
### Response 99.3

### Prompt Also need Cc1cn2c(N)c(C=C3C=C(Cl)C(=O)C(Cl)=C3)c(=O)nc2s1 , thanks.
### Response 101

### Prompt How about this compound: Nc1ncnc(Nc2cc(Cl)cc(Cl)c2)c1[N+](=O)[O-]
### Response 97.7

### Prompt Now the compound Nc1[nH]c(=O)nc(Nc2ccccc2)c1N=O
### Response 92.8

### Prompt Entry to check: COC1=C/C(=C/c2c(N)n3cc(C)sc3nc2=O)C=CC1=O
### Response 124

### Prompt Also O=c1cc(C(F)(F)F)[nH]c2c(OC(F)(F)F)cccc12 ?
### Response 107

### Prompt Okay, and COc1cccc(N/C(C)=C/C(=O)c2ccc(Br)cc2)c1 ?
### Response 104

### Prompt Now the compound Cc1ccc(C(=O)Nc2nc(-c3ccccn3)cs2)o1
### Response 99.3

### Prompt Also Nc1ccc(O)c2c1C(=O)c1ccccc1C2=O , if possible.
### Response 107

### Prompt Please answer likewise for Oc1ccc(F)c2cccnc12
### Response 101

### Prompt Now the compound Cc1ccc(Nc2cc(=O)[nH]c(=O)[nH]2)cc1C
### Response 104

### Prompt Proceed to NC(=O)COc1cccc2cccnc12
### Response 104

### Prompt And for CCN(CC)C(=O)Oc1ccnc2cc(Cl)ccc12 ?
### Response 107

### Prompt Next compound up: COc1ccc(OC)c(N/C(C)=C/C(=O)c2ccccc2)c1
### Response 99.3

### Prompt Okay, and OCCNc1ncnc2ccc(Br)cc12 ?
### Response 109

### Prompt Now give it for O=C(Nc1ccc(-c2nc3ccccc3o2)cc1)c1cccnc1 too.
### Response 96.1

### Prompt Another compound to look at: O=C(N/N=C/c1ccccc1)c1cccc2ccccc12
### Response 97.7

### Prompt What would you report for CC1=CN2C(=N)/C(=C/c3ccco3)C(=O)N=C2S1 ?
### Response 112

### Prompt Input COc1ccc(NC(=O)O/N=C2/CCCc3ccc(OC)cc32)cc1
### Response 104
